Target: M1 (matrix protein 1), recombinant N1-165 domain of WSN/33 (Influenza A virus (A/Wilson-Smith/1933(H1N1)), UniProt P05777)
Sequence (P05777 1-165): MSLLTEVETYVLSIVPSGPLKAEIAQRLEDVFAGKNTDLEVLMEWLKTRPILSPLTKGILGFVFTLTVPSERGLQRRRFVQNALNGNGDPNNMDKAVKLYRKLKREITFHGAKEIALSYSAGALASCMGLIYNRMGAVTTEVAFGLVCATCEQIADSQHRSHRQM
Assay: surface plasmon resonance, biotinylated M1 on NeutrAvidin chip
Experimental Endpoint: pKd
# pKd: negative log10 of molar concentration; output just the value

Could you share which pKd value was measured for CCCc1c(OCCCOc2ccc(OCC(=O)O)cc2)ccc(C(C)=O)c1O [PHE] ?
6.06

###

Molecular target: M1 (matrix protein 1), recombinant N1-165 domain of WSN/33 (Influenza A virus (A/Wilson-Smith/1933(H1N1)), UniProt P05777)
Test: bio-layer interferometry, inhibition of M1-M1 self-association
Experimental Endpoint: IC50

Could you share which IC50 value was measured for `CCCc1c(OCCCOc2ccc(OCC(=O)O)cc2)ccc(C(C)=O)c1O` ?
~6 µM
